In this section we review reported GI50 values for a set of molecules.
- Tested on: Hs-578T
- ASSAY_REMARKS: NCI tumour cell line growth inhibition, 48 h
Activity calls are given as the source filed them. Rule as the data show it: active = GI50 up to about 1.1 µM and inactive = higher.
READOUT_TYPE: GI50

MOLECULE	MEASURED_TARGET	RECORDED_VALUE
COc1ccc(Br)c(/C=N\c2cccc3cc(OC)c(OC)cc23)c1	Hs-578T	5.21 µM (inactive)
CC1=NN2C(=N)/C(=C/c3ccccc3)C(=O)N=C2S1	Hs-578T	> 100 µM (inactive)
Cc1cc(C)cc(C(=N)c2ccccc2Cc2cccc3ccccc23)c1	Hs-578T	3.47 µM (inactive)
Cc1ccc2nc(-c3ccc(-n4c(C)nc(=O)c(-c5ccc(F)cc5)c4C)cc3)sc2c1	Hs-578T	25.9 µM (inactive)
COc1ccc(OC)c(/C=C/c2cnnc3ccccc23)c1	Hs-578T	1.43 µM (inactive)
Cc1ccc(S(=O)(=O)NC(=O)Nc2nc[nH]n2)cc1	Hs-578T	> 100 µM (inactive)
O=C(O)C1C(C(=O)O)C2C(=O)C=CC1N2Cc1ccccc1 (stereo not given)	Hs-578T	2.82 µM (inactive)
CCC(c1ccc2cc(O)ccc2c1)C(C)(C)C(=O)O (stereo not given)	Hs-578T	> 100 µM (inactive)
Cc1sc2[nH]c(=O)oc(=O)c2c1C	Hs-578T	28.6 µM (inactive)
O=C(/C=C/c1cc2ccccc2o1)N1CCN(c2ccccn2)CC1	Hs-578T	> 100 µM (inactive)

* * *

- System: NCI-H522
- ASSAY_REMARKS: NCI tumour cell line growth inhibition, 48 h
The source made the active and inactive calls. Cut-off read from the data, not from the text of the source: active = GI50 up to about 1.1 µM and inactive = higher.
Classes used: 1 = active, 0 = inactive

COMPOUND	MEASURED_TARGET	CATEGORY_LABEL
O=C(/C=C1\N=C(c2ccccc2)N(c2nc3ccc(Sc4ccccc4)cc3[nH]2)C1=O)/C=C/c1ccccc1	NCI-H522	0
CN(C)c1ccc(/C=C(\NC(=O)c2ccccc2)C(=O)NCC(=O)O)cc1	NCI-H522	0
Cc1c2c(n(Cc3ccccn3)c1C)NN=C(C#N)S2(=O)=O	NCI-H522	0
COC(=O)c1c(O)c2c(c3c1OC(C)(C)CC3)OC(C)(C)CC2	NCI-H522	0
C(=N/Nc1ccc(-c2nc3ccccc3[nH]2)cc1)/c1c(-c2ccccc2)[nH]c2ccccc12	NCI-H522	1
O=C1Nc2ccc(Br)cc2/C1=N/NC(=S)Nc1ccc([N+](=O)[O-])cc1	NCI-H522	0
Nc1[nH]cnc2ncnc1-2	NCI-H522	0
COc1ccc(C(c2ccc(C(C)C)cc(OC)c2=O)c2ccc(C(C)C)cc(OC)c2=O)cc1	NCI-H522	0
N=C(N)N/N=C/c1c(-c2ccc(Cl)c([N+](=O)[O-])c2)nc2sccn12	NCI-H522	0
CC(=O)O[C@@H]1O[Si](C(C)(C)C)(C(C)(C)C)[C@H](C)[C@H]1C	NCI-H522	0
Cc1cc(C)cc(C(=N)c2ccccc2Cc2cccc3ccccc23)c1	NCI-H522	0
COc1cc2c(cc1OC)C(C)N(C)c1c-2c(OC(C)=O)cc2cc(OC)c(OC)cc12 (stereo unspecified)	NCI-H522	0
CCOC(=O)Nc1[nH]cc(-c2ccccc2)c1C#N	NCI-H522	0
c1cc(-c2cn3ccsc3n2)ccn1	NCI-H522	0
COc1ccc2c(c1)CC[C@@H]1C2CC[C@]2(C)C(=O)N(CCN(C)C)C(=O)CC12 (stereo partly specified)	NCI-H522	0
Cc1c(-c2ccccc2)c(C#N)c2nnn(C3CCCCC3)c(=O)n12	NCI-H522	0
O=[N+]([O-])/C(Cl)=C(/C(Cl)=C(Cl)Cl)N1CCCCC1	NCI-H522	0
COc1ccc([C@H]2[C@H]3COC(=O)[C@H]3C(C#N)=C3Sc4ccccc4N32)cc1	NCI-H522	0
COc1cccc(C2c3cc4c(cc3OC(NNc3ccccc3)C2C)OCO4)c1OC (stereo unspecified)	NCI-H522	0
N/N=C(\c1nc2ccc(Cl)cc2nc1O)C(O)c1ccc(Cl)c(Cl)c1 (stereo unspecified)	NCI-H522	0
Cc1nc2c(N3CCCC3)nc(N3CCNCC3)nc2nc1NCc1ccccc1	NCI-H522	0
O=C(CNc1cccc([N+](=O)[O-])c1)Nn1c(-c2ccccc2)nc2ccccc2c1=O	NCI-H522	1
COC(=O)CC[C@@H](NC(=O)C(C)NC(=O)COC1C(O)C(COC(=O)CCCCCCCCCCNC(=O)c2ccc([N+](=O)[O-])c3[nH]c4cc(Br)ccc4c(=O)c23)OC(OCc2ccccc2)C1NC(C)=O)C(N)=O (stereo partly specified)	NCI-H522	0
O=[N+]([O-])c1ccc(-c2noc(-c3ccccc3)c2C2=NCCN2)cc1	NCI-H522	0
CO[C@@](c1ccccc1)(c1nc(C#N)c(N)o1)C(F)(F)F	NCI-H522	0
O=Cc1c[nH]c2c(=O)[nH]cnc12	NCI-H522	0

* * *

- System: SK-MEL-28
- ASSAY_REMARKS: NCI tumour cell line growth inhibition, 48 h
The source made the active and inactive calls. Rule as the data show it: active = GI50 up to about 1.1 µM and inactive = higher.
Classes used: active, inactive

MOLECULE	CATEGORY_LABEL
CCOC(=O)/C(C(=O)c1ccc([N+](=O)[O-])cc1)=C(\NS(=O)(=O)c1cc(C)c(Cl)cc1[S-])[n+]1ccc(N(C)C)cc1	inactive
CCOC(=O)C1S/C(=N\C(=N)N[N+](=O)[O-])N=C1C (stereo not given)	inactive
CC1=C2c3ccccc3N(S(=O)(=O)c3ccccc3)[C@H]2[C@H](C(=O)N2C3CC4CC[C@@]3(CS2(=O)=O)C4(C)C)CC1 (stereo not given in full)	inactive
O=c1c(Cc2c(O)oc3cc(O)ccc3c2=O)c(O)oc2cc(O)ccc12	inactive
COc1ccc(/C=N/N=C(N)N)c(C(=O)O)c1OC	inactive
CC#CC1/C(=C\C(=O)OC)CCCC1O (stereo not given)	inactive
O=C1OCCC1C(O)C1c2ccccc2-c2ccccc21 (stereo not given)	inactive
CC1(C)[C@@H]2C[C@H]1c1cnc(-c3ccccn3)cc1[C@H]2C(O)[C@@H]1c2cc(-c3ccccn3)ncc2[C@H]2C[C@@H]1C2(C)C (stereo not given in full)	active
COc1cccc(N2CCc3c(C)c(C#N)c4nc5ccccc5n4c32)c1	inactive
CCc1nc(N)nc(N)c1-c1ccc(Cl)c(N=[N+]=[N-])c1	inactive
CCCCOc1ccc(OCCCCCCCCCC[N+](C)(C)C)cc1	inactive
CCOC(=O)Cn1nnc2ccc(Nc3nc4ccccc4nc3C(=O)OCC)cc21	inactive
COc1ccc(CN2C(=O)CCC/C=C\[C@H]2CI)cc1	inactive
COc1nc(Cl)c(Cl)c(Cl)n1.COc1nc(Cl)nc(Cl)c1Cl	inactive
Cn1c(=O)c2c(nc(-n3nc(-c4ccc(Cl)cc4)cc3N)n2C)n(C)c1=O	inactive

* * *

- Test system: RPMI-8226
- ASSAY_REMARKS: NCI tumour cell line growth inhibition, 48 h
Calls of active or inactive are those of the source. Rule as the data show it: active = GI50 up to about 1.1 µM and inactive = higher.
Classes used: active, inactive

COMPOUND	MEASURED_TARGET	CATEGORY_LABEL
COc1cc2c(c(OC)c1OC)-c1ccc(=O)c(O)cc1[C@@H](NC(C)=O)CC2	RPMI-8226	inactive
O=C1C(=Cc2cccs2)C(=O)N(CCc2ccccc2)S(=O)(=O)N1CCc1ccccc1	RPMI-8226	inactive
Cc1ccc(NCCN(C)C)c2c(=O)c3cc(O)ccc3oc12	RPMI-8226	inactive
CNC(=S)N/N=C(\C(=N/NC(=S)NC)c1ccccn1)c1ccccn1	RPMI-8226	inactive
O=C(CNc1cccc([N+](=O)[O-])c1)Nn1c(-c2ccccc2)nc2ccccc2c1=O	RPMI-8226	active
O=C1C(Cl)=C(Cl)C(=O)N1c1ccc(Cl)c(Cl)c1Cl	RPMI-8226	inactive
CC(=O)OC1COC(Nn2c(=O)[nH]c3ccccc3c2=O)C(OC(C)=O)C1OC(C)=O (stereo not drawn)	RPMI-8226	inactive
O=C(O)C1CCCN1Cc1c[nH]c2ccccc12 (stereo not drawn)	RPMI-8226	inactive
COC(=O)C(C(=O)C(=O)Nc1ccccc1C)c1nc2ccc([N+](=O)[O-])cc2nc1O (stereo not drawn)	RPMI-8226	inactive
CC(=O)O[C@@H]1O[Si](C(C)(C)C)(C(C)(C)C)[C@H](C)[C@H]1C	RPMI-8226	inactive
O=C(Oc1ccccc1)c1cc2cc(CCl)ccc2oc1=O	RPMI-8226	inactive
CCCCC/C=C\C=C\CCCCCCCCC(=O)OC	RPMI-8226	inactive
COc1ccc(-c2cc(C(=O)Nc3ccc(C)c(C)c3)nc(NC#N)n2)cc1	RPMI-8226	inactive
C=C1CC2C(=O)N(c3ccccc3)C(=O)C2CC1n1[nH]c(=O)n(Cc2ccccc2)c1=O (stereo not drawn)	RPMI-8226	inactive
COc1ccc([C@H]2[C@H]3COC(=O)[C@H]3C(C#N)=C3Sc4ccccc4N32)cc1	RPMI-8226	inactive
N/C(CCSCCSCC/C(N)=N\O)=N\O	RPMI-8226	inactive
COC(=O)Nc1nc2ccccc2[nH]1	RPMI-8226	inactive
Cc1cc(-c2nc3ccccc3s2)ccc1NS(=O)(=O)O	RPMI-8226	inactive
